meta.source: ChEMBL document CHEMBL3352258

TARGET: Glucose-dependent insulinotropic receptor (Homo sapiens)
Sequence (Q8TDV5 whole entry): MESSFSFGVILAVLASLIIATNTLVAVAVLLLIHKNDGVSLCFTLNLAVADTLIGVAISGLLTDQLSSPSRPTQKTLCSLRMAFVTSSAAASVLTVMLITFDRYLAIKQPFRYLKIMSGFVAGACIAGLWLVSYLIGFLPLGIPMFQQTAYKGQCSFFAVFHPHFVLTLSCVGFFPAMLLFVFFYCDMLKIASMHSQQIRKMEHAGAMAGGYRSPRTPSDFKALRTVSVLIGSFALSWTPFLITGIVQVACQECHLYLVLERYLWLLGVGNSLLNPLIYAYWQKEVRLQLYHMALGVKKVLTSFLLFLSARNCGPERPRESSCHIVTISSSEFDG
EXPERIMENT_SUMMARY: Agonist activity at human GPR119
OUTCOME_MEASURE: EC50 (nM)
Could you give me the number in nM? Just the number is fine.

SAMPLE_SMILES	UNIT_NAME	OBSERVED_VALUE
CCCc1cnc(N2CCC(Oc3ccn(-c4ccc(-n5cncn5)cc4)c(=O)c3)CC2)nc1	nM	63
CC(C)OC(=O)N1CCC(Oc2ccn(-c3ccc(S(C)(=O)=O)cc3)c(=O)c2)CC1	nM	133
CCc1cnc(N2CCC(Oc3ccn(-c4ccc(S(C)(=O)=O)cc4)c(=O)c3)CC2)nc1	nM	57
COc1cnc(N2CCC(Oc3ccn(-c4ccc(S(C)(=O)=O)cc4)c(=O)c3)CC2)nc1	nM	117
CCCc1cnc(N2CCC(Oc3ccn(-c4ccc(N5CCCC5=O)cc4)c(=O)c3)CC2)nc1	nM	32

Switching to the query record.
Lab request: please report EC50 under test system Glucose-dependent insulinotropic receptor (Homo sapiens) for CS(=O)(=O)c1ccc(-n2cc(Cl)c(OC3CCN(c4ncc(Cl)cn4)CC3)cc2=O)cc1
18

====

TARGET: hERG (KCNH2) (Homo sapiens)
Sequence (Q12809 whole entry): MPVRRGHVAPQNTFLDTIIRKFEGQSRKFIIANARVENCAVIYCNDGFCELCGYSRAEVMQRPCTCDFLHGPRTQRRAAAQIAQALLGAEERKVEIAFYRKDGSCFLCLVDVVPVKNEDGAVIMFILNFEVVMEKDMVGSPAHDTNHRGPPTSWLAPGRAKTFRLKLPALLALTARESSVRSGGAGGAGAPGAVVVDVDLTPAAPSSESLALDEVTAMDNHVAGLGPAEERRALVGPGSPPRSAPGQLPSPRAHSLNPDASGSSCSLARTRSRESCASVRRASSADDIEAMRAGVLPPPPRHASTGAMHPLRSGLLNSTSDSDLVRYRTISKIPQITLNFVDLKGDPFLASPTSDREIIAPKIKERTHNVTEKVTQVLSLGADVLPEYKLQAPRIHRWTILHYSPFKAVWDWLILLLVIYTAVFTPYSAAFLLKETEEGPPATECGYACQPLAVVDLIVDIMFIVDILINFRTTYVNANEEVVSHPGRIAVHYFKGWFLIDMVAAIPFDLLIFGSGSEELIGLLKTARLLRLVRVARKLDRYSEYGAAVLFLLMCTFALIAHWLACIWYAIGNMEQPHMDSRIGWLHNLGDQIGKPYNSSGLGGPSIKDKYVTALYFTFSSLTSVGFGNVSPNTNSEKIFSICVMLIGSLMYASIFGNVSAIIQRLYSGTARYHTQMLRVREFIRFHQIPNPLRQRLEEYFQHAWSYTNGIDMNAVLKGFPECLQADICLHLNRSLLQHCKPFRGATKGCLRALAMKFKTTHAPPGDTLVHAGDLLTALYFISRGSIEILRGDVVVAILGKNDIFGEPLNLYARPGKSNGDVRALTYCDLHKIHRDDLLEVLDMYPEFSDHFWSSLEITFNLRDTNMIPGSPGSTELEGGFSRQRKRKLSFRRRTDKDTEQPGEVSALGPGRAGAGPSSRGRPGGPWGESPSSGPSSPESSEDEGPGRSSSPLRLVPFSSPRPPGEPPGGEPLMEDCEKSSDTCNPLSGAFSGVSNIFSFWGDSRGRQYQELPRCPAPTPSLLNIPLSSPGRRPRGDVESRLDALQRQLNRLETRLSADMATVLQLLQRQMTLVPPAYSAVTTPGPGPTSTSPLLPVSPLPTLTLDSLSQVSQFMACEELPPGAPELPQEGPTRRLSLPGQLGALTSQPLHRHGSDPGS
EXPERIMENT_SUMMARY: Inhibition of human ERG at 10 uM by patch clamp assay
OUTCOME_MEASURE: inhibition at 10 µM (%)
Could you give me the number in %? Just the number is fine.

For the compound shown here, CCCc1cnc(N2CCC(Oc3ccn(-c4ccc(S(C)(=O)=O)cc4F)c(=O)c3)CC2)nc1 , give the reported inhibition at 10 µM.
47

====

EXPERIMENT_SUMMARY: Protein binding in rat plasma
Type: ADME, cell-free
CONDITION: read-out: PPB
OUTCOME_MEASURE: fraction unbound

For the molecule shown here, CCCc1cnc(N2CCC(Oc3ccn(-c4ccc(S(C)(=O)=O)cc4F)c(=O)c3)CC2)nc1 , give the reported fraction unbound.
0.01

====

Property: EC50; scope: individual molecules
TARGET: Nuclear receptor subfamily 1 group I member 2 (Homo sapiens, UniProt O75469)
Sequence (O75469 whole entry): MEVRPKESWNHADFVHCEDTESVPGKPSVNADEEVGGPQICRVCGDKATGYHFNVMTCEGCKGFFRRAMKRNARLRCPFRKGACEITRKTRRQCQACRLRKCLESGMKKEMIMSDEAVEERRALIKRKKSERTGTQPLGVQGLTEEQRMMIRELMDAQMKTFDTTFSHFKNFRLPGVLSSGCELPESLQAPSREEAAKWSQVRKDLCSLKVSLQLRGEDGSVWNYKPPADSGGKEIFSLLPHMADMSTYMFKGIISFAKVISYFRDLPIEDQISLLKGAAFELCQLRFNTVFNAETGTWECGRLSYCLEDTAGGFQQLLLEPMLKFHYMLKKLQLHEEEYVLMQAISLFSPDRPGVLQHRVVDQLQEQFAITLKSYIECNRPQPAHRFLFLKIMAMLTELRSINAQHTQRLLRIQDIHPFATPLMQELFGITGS
EXPERIMENT_SUMMARY: Activation of PXR (unknown origin)

MOLECULE	TARGET	EC50
CS(=O)(=O)c1ccc(-n2cc(Cl)c(OC3CCN(c4ncc(Cl)cn4)CC3)cc2=O)c(F)c1 [BMS-903452]	Nuclear receptor subfamily 1 group I member 2 (Homo sapiens, UniProt O75469)	> 50 µM

Switching to the query record.
For the molecule shown here, CCCc1cnc(N2CCC(Oc3ccn(-c4ccc(S(C)(=O)=O)cc4F)c(=O)c3)CC2)nc1 , give the reported EC50.
> 50 µM

====

EXPERIMENT_SUMMARY: Permeability of the compound across human Caco2 cells
Assay type: ADME, cell-based
CONDITION: Caco-2, read-out: permeability
OUTCOME_MEASURE: Papp (×10⁻⁶ cm/s)
Could you give me the number in ×10⁻⁶ cm/s? Just the number is fine.

For the molecule shown here, CCCc1cnc(N2CCC(Oc3ccn(-c4ccc(S(C)(=O)=O)cc4F)c(=O)c3)CC2)nc1 , give the reported Papp.
22

====

EXPERIMENT_SUMMARY: Half life in mouse
Type: ADME, organism-based
CONDITION: in vivo
Please use fulfilled whenever half-life is not below 20 min, and not fulfilled whenever it is.

CS(=O)(=O)c1ccc(-n2cc(Cl)c(OC3CCN(c4ncc(Cl)cn4)CC3)cc2=O)cc1 not fulfilled
CS(=O)(=O)c1ccc(-n2cc(Cl)c(OC3CCN(c4ncc(C(F)(F)F)cn4)CC3)cc2=O)c(F)c1 fulfilled
CS(=O)(=O)c1ccc(-n2cc(Cl)c(OC3CCN(c4ncc(C(F)(F)F)cn4)CC3)cc2=O)cc1F fulfilled

Assess whether reported half-life for CS(=O)(=O)c1ccc(-n2cc(Cl)c(OC3CCN(c4ncc(C(F)(F)F)cn4)CC3)cc2=O)cc1 sits at 20 min or higher.
not fulfilled

Assess whether reported half-life for CS(=O)(=O)c1ccc(-n2cc(Cl)c(OC3CCN(c4ncc(Cl)cn4)CC3)cc2=O)cc1F sits at 20 min or higher.
not fulfilled

Assess whether reported half-life for CS(=O)(=O)c1ccc(-n2cc(Cl)c(OC3CCN(c4ncc(Cl)cn4)CC3)cc2=O)c(F)c1 sits at 20 min or higher.
not fulfilled

====

EXPERIMENT_SUMMARY: Terminal half life in human at 0.1 to 120 mg, po
Format: ADME, organism-based
CONDITION: in vivo, read-out: beta t1/2 (converted)
OUTCOME_MEASURE: half-life (h)
Could you give me the number in h? Just the number is fine.

For the compound shown here, CS(=O)(=O)c1ccc(-n2cc(Cl)c(OC3CCN(c4ncc(Cl)cn4)CC3)cc2=O)c(F)c1 [BMS-903452] , give the reported half-life.
36

====

Property: solubility; scope: individual compounds
EXPERIMENT_SUMMARY: Solubility of the compound in 50% PEG400/ 50% PBS solution
Format: physicochemical

CS(=O)(=O)c1ccc(-n2cc(Cl)c(OC3CCN(c4ncc(Cl)cn4)CC3)cc2=O)cc1 7 µg/mL

For the compound shown here, CS(=O)(=O)c1ccc(-n2cc(Cl)c(OC3CCN(c4ncc(C(F)(F)F)cn4)CC3)cc2=O)cc1 , give the reported solubility.
3 µg/mL

For the compound shown here, CS(=O)(=O)c1ccc(-n2cc(Cl)c(OC3CCN(c4ncc(C(F)(F)F)cn4)CC3)cc2=O)cc1F , give the reported solubility.
31 µg/mL

For the compound shown here, CS(=O)(=O)c1ccc(-n2cc(Cl)c(OC3CCN(c4ncc(Cl)cn4)CC3)cc2=O)cc1F , give the reported solubility.
199 µg/mL

For the compound shown here, CS(=O)(=O)c1ccc(-n2cc(Cl)c(OC3CCN(c4ncc(Cl)cn4)CC3)cc2=O)c(F)c1 , give the reported solubility.
41 µg/mL

For the compound shown here, CS(=O)(=O)c1ccc(-n2cc(Cl)c(OC3CCN(c4ncc(C(F)(F)F)cn4)CC3)cc2=O)c(F)c1 , give the reported solubility.
122 µg/mL

====

EXPERIMENT_SUMMARY: Oral bioavailability in Sprague-Dawley rat at 5 mg/kg administered as suspension
Format: ADME, organism-based
CONDITION: in vivo
OUTCOME_MEASURE: bioavailability (%)
Could you give me the number in %? Just the number is fine.

For the compound shown here, CS(=O)(=O)c1ccc(-n2cc(Cl)c(OC3CCN(c4ncc(Cl)cn4)CC3)cc2=O)c(F)c1 [BMS-903452] , give the reported bioavailability.
33

====

Property: half-life; scope: individual molecules
EXPERIMENT_SUMMARY: Half life in Sprague-Dawley rat at 5 mg/kg, po
Assay type: ADME, organism-based
Set-up: dose 5 mg/kg, route oral
CONDITION: Sprague-Dawley, in vivo

CS(=O)(=O)c1ccc(-n2cc(Cl)c(OC3CCN(c4ncc(C(F)(F)F)cn4)CC3)cc2=O)cc1 > 1.2 h
CS(=O)(=O)c1ccc(-n2cc(Cl)c(OC3CCN(c4ncc(C(F)(F)F)cn4)CC3)cc2=O)c(F)c1 > 1.2 h

Switching to the query record.
For the molecule shown here, CS(=O)(=O)c1ccc(-n2cc(Cl)c(OC3CCN(c4ncc(C(F)(F)F)cn4)CC3)cc2=O)cc1F , give the reported half-life.
> 0.8 h

====

TARGET: Glucose-dependent insulinotropic receptor (Homo sapiens)
EXPERIMENT_SUMMARY: Intrinsic activity at human GPR119 relative to control
OUTCOME_MEASURE: Intrinsic activity

Observe how each entry below is paired with its result.
COMPOUND	Intrinsic activity
CCCc1cnc(N2CCC(Oc3ccn(-c4ccc(S(C)(=O)=O)c(F)c4)c(=O)c3)CC2)nc1	0.8
CCCc1cnc(N2CCC(Oc3cc(=O)n(-c4ccc(S(C)(=O)=O)cc4)cc3C#N)CC2)nc1	0.8
CCCc1cnc(N2CCC(Oc3ccn(-c4ccc(S(C)(=O)=O)cc4)c(=O)c3)CC2)nc1	0.8
CCCc1cnc(N2CCC(Oc3ccn(-c4ccc(N5CCCC5=O)cc4)c(=O)c3)CC2)nc1	0.8
CC(C)OC(=O)N1CCC(COc2ccn(-c3ccc(S(C)(=O)=O)cc3)c(=O)c2)CC1	0.7

For the compound shown here, CC(C)OC(=O)N1[C@@H]2CC[C@@H]1CC(Oc1ccn(-c3ccc(S(C)(=O)=O)cc3)c(=O)c1)C2 (relative stereo; 14) , give the reported Intrinsic activity.
0.7

For the compound shown here, CCCc1cnc(N2CCC(Oc3ccn(-c4ccc(S(C)(=O)=O)cc4F)c(=O)c3)CC2)nc1 , give the reported Intrinsic activity.
1

For the compound shown here, CCCc1cnc(N2CCC(Oc3cc(=O)n(-c4ccc(S(C)(=O)=O)cc4)cc3C)CC2)nc1 , give the reported Intrinsic activity.
0.9

For the compound shown here, CC(C)OC(=O)N1[C@@H]2CC[C@@H]1CC(Oc1ccn(-c3ccc(S(C)(=O)=O)cc3)c(=O)c1)C2 (relative stereo; 13) , give the reported Intrinsic activity.
1

For the compound shown here, CCCc1cnc(N2CCC(Oc3ccn(-c4ccc(-n5cncn5)cc4)c(=O)c3)CC2)nc1 , give the reported Intrinsic activity.
0.8

For the compound shown here, COc1cnc(N2CCC(Oc3ccn(-c4ccc(S(C)(=O)=O)cc4)c(=O)c3)CC2)nc1 , give the reported Intrinsic activity.
1
